Test system: CAMK2G;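 also: KINOMEscan scanMAX binding as percent activity remaining versus control; lower means stronger binding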
Conditions: Compound Concentration (nM):1000
Reported Percent Control values are given for each entry in this list.
Provide only the numeric value, understood in %.

Examples with their reported Percent Control follow.
{"columns": ["COMPOUND", "TEST RESULT"],
 "data": [
  ["Nc1ncnc2occ(-c3ccc(NC(=O)Nc4cc(C(F)(F)F)ccc4F)cc3)c12 [GW770249X]", 92],
  ["COc1cc2ncnc(Nc3ccc4c(cnn4Cc4ccccc4)c3)c2cc1OC.Cl [GW282449A]", 100],
  ["C/C(Nc1ccc(S(N)(=O)=O)cc1)=C1/C(=O)Nc2ccccc21 [GW335962X]", 95]
]}

[Q] Could you share which Percent Control value was measured for COc1cccc(-c2c[nH]c3c(N/N=C/c4ccncc4)ncnc23)c1 [GW814408X] ?
[A] 100

[Q] Could you share which Percent Control value was measured for COc1cc(/C=N/Nc2ncnc3[nH]ncc23)ccc1O [GW578748X] ?
[A] 100
